Consider the following molecules; for each one, report its pKi.
- test target: PfDHFR S108N (Plasmodium falciparum, UniProt A7UD81, S108N)
- Sequence (A7UD81 whole entry S108N): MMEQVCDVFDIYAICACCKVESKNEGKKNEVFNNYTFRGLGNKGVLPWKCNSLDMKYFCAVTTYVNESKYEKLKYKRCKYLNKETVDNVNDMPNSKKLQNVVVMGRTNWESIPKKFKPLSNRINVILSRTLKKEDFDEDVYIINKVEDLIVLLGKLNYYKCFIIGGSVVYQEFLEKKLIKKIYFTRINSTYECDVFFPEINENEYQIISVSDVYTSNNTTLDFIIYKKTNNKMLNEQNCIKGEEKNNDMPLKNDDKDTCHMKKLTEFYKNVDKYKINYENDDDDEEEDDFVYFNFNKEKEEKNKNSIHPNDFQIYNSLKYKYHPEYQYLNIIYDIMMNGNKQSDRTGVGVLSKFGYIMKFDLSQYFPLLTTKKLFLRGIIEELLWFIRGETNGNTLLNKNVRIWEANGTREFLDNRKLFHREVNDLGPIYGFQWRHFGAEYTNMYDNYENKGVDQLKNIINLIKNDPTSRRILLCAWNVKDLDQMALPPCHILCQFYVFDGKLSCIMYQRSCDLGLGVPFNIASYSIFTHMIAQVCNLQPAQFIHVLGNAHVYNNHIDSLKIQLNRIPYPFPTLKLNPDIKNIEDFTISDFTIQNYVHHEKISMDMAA
- method notes: PfDHFR enzyme inhibition constants (Ki), single mutant S108N
Numbers only, as −log10 of the molar value.

Worked examples follow.
Any idea what its pKi is? The molecule is Nc1nc(N)c(-c2ccccc2)c(CCCc2ccccc2)n1 [Example 2]
9.05

Using the record for COC(=O)CCCc1nc(N)nc(N)c1-c1cccc(Cl)c1 [Example 6] , report its pKi.
8.77

Record request: pKi value, item CCCCCCc1nc(N)nc(N)c1-c1ccccc1 [Example 1]
8.92

Tell me the measured pKi of COc1ccc(CCCc2nc(N)nc(N)c2-c2cccc(Cl)c2)cc1 [Example 5] , please.
8.40

Using the record for Nc1nc(N)c(-c2cccc(Cl)c2)c(CCOCCCOc2ccccc2)n1 [Example 7] , report its pKi.
8.74

# per-item lookup of pKi; items listed below
1. COC(=O)CCCc1nc(N)nc(N)c1-c1ccccc1 [Example 3]
2. Nc1nc(N)c(-c2cccc(Cl)c2)c(CCCc2ccccc2)n1 [Example 4]

1. 8.74
2. 8.52
